- System: Escherichia coli
- Protocol details: Antimicrobial activity against Escherichia coli DH5[alpha] at 100 ug after 24 hr by agar disk diffusion method
- Type: functional
- Particulars: read-out: DIZ

Structure as smiles	Output unit	zone of inhibition at 100 µg/disc
COc1ccc(C(=O)/C=C/c2c(OC)cc(OC)c(C3=CCN(C)CC3)c2OC)cc1OC	mm	2
COc1cc(OC)c(C2=CCN(C)CC2)c(OC)c1/C=C/C(=O)c1ccc(N)cc1	mm	6.5
COc1cc(OC)c(C2=CCN(C)CC2)c(OC)c1/C=C/C(=O)c1cccs1	mm	1.1
COc1ccccc1C(=O)/C=C/c1c(OC)cc(OC)c(C2=CCN(C)CC2)c1OC	mm	3.5
COc1cc(OC)c(C2=CCN(C)CC2)c(OC)c1/C=C/C(=O)c1cccc(N)c1	mm	3.5

* * *

- Test system: Escherichia coli
- Protocol details: Antimicrobial activity against Escherichia coli DH5[alpha] at 100 ug after 24 hr by agar disk diffusion method
- Type: functional
- Particulars: read-out: DIZ
In this section, each of the compounds is paired with its reported zone of inhibition at 100 µg/disc.
Endpoint: zone of inhibition at 100 µg/disc

Structure as smiles	Value
COc1cc(OC)c(C2=CCN(C)CC2)c(OC)c1/C=C/C(=O)c1ccc(F)c(F)c1	2 mm
COc1cc(OC)c(C2=CCN(C)CC2)c(OC)c1/C=C/C(=O)c1ccc([N+](=O)[O-])cc1	2 mm
COc1cc(OC)c(C2=CCN(C)CC2)c(OC)c1/C=C/C(=O)c1ccc(Br)cc1	2 mm
COc1cc(OC)c(C2=CCN(C)CC2)c(OC)c1/C=C/C(=O)c1ccccc1	5.5 mm
COc1cc(OC)c(C2=CCN(C)CC2)c(OC)c1/C=C/C(=O)c1ccc(Cl)c(Cl)c1	1.5 mm
COc1cc(OC)c(C2=CCN(C)CC2)c(OC)c1/C=C/C(=O)c1ccc[nH]1	6.25 mm
COc1cc(OC)c(C(=O)/C=C/c2c(OC)cc(OC)c(C3=CCN(C)CC3)c2OC)c(OC)c1	3.5 mm
COc1cc(OC)c(C2=CCN(C)CC2)c(OC)c1/C=C/C(=O)c1ccc(Cl)cc1Cl	2.5 mm
COc1cc(O)c(C(=O)/C=C/c2c(OC)cc(OC)c(C3=CCN(C)CC3)c2OC)c(OC)c1	2 mm

* * *

- Test system: Proteus vulgaris
- Protocol details: Antimicrobial activity against Proteus vulgaris MTCC 1751 at 100 ug after 24 hr by agar disk diffusion method
- Format: functional
- Particulars: MTCC 1751, 24 h, read-out: DIZ
In this section, each of the compounds is paired with its reported zone of inhibition at 100 µg/disc.

Structure as smiles	zone of inhibition at 100 µg/disc (mm)
COc1ccccc1C(=O)/C=C/c1c(OC)cc(OC)c(C2=CCN(C)CC2)c1OC	3
COc1cc(OC)c(C2=CCN(C)CC2)c(OC)c1/C=C/C(=O)c1cccs1	6.5
COc1ccc(C(=O)/C=C/c2c(OC)cc(OC)c(C3=CCN(C)CC3)c2OC)cc1OC	5.5
COc1cc(OC)c(C2=CCN(C)CC2)c(OC)c1/C=C/C(=O)c1ccc(C)cc1	10.2
COc1cc(O)c(C(=O)/C=C/c2c(OC)cc(OC)c(C3=CCN(C)CC3)c2OC)c(OC)c1	9.5

* * *

- Tested on: Staphylococcus aureus
- Protocol details: Antimicrobial activity against Staphylococcus aureus MTCC 96 at 100 ug after 24 hr by agar disk diffusion method
- Format: functional
- Particulars: MTCC 96, 24 h, read-out: DIZ
Endpoint: zone of inhibition at 100 µg/disc (mm)

Structure as smiles	Value
COc1cc(OC)c(C2=CCN(C)CC2)c(OC)c1/C=C/C(=O)c1ccc(C)cc1	5
COc1cc(OC)c(C2=CCN(C)CC2)c(OC)c1/C=C/C(=O)c1ccc[nH]1	1.1
COc1cc(OC)c(C2=CCN(C)CC2)c(OC)c1/C=C/C(=O)c1cccc(N)c1	3.5
COc1cc(OC)c(C2=CCN(C)CC2)c(OC)c1/C=C/C(=O)c1ccc(Cl)cc1	2.5
COc1cc(OC)c(C2=CCN(C)CC2)c(OC)c1/C=C/C(=O)c1ccc([N+](=O)[O-])cc1	5
COc1cc(OC)c(C2=CCN(C)CC2)c(OC)c1/C=C/C(=O)c1ccc(Cl)c(Cl)c1	5
COc1cc(OC)c(C2=CCN(C)CC2)c(OC)c1/C=C/C(=O)c1ccccc1	5
COc1cc(OC)c(C2=CCN(C)CC2)c(OC)c1/C=C/C(=O)c1cccs1	2.5
COc1cc(OC)c(C(=O)/C=C/c2c(OC)cc(OC)c(C3=CCN(C)CC3)c2OC)c(OC)c1	3.5
COc1cc(OC)c(C2=CCN(C)CC2)c(OC)c1/C=C/C(=O)c1ccc(Cl)cc1Cl	1.1
COc1cc(OC)c(C2=CCN(C)CC2)c(OC)c1/C=C/C(=O)c1ccc(N)cc1	1.5
COc1cc(OC)c(C2=CCN(C)CC2)c(OC)c1/C=C/C(=O)c1ccc(F)cc1	2

* * *

- Protocol details: Cytotoxicity against Homo sapiens (human) PN-5C-12 at 100 ug after 72 hr by MTT assay
- Particulars: in vitro
Endpoint: Activity (%)

Structure as smiles	Value
COc1cc(OC)c(C2=CCN(C)CC2)c(OC)c1/C=C/C(=O)c1ccc([N+](=O)[O-])cc1	70.09
COc1cc(OC)c(C2=CCN(C)CC2)c(OC)c1/C=C/C(=O)c1ccc(F)c(F)c1	65.48
COc1cc(OC)c(C2=CCN(C)CC2)c(OC)c1/C=C/C(=O)c1cccc(N)c1	44.53
COc1cc(OC)c(C2=CCN(C)CC2)c(OC)c1/C=C/C(=O)c1ccccc1	61.79
COc1cc(OC)c(C(=O)/C=C/c2c(OC)cc(OC)c(C3=CCN(C)CC3)c2OC)c(OC)c1	59.81
COc1ccc(C(=O)/C=C/c2c(OC)cc(OC)c(C3=CCN(C)CC3)c2OC)cc1	46.11
